molecular target: Jun bZIP K273A;Fos bZIP R143A (human;human, UniProt P05412;P01100 252-315;137-200, K273A|R143A); assay: ITC
Sequence (P05412 252-315 K273A, chain 1 of 2): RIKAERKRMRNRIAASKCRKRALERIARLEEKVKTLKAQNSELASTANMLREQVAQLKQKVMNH
Sequence (P01100 137-200 R143A, chain 2 of 2): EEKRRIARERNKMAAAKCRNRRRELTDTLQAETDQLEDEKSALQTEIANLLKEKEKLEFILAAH
READOUT_KIND: Kd (nM)
One number for each entry, in nM.

### Prompt Need Kd, item TRE duplex 15-mer (dsDNA) DNA 1: CGCGTGACTCACCCC DNA 2: GGGGTGAGTCACGCG
### Response 1220

Measured values drawn from paper PMC3154423 for this set.
